Biological target: (Homo sapiens, UniProt P43220)
Sequence (P43220 24-463): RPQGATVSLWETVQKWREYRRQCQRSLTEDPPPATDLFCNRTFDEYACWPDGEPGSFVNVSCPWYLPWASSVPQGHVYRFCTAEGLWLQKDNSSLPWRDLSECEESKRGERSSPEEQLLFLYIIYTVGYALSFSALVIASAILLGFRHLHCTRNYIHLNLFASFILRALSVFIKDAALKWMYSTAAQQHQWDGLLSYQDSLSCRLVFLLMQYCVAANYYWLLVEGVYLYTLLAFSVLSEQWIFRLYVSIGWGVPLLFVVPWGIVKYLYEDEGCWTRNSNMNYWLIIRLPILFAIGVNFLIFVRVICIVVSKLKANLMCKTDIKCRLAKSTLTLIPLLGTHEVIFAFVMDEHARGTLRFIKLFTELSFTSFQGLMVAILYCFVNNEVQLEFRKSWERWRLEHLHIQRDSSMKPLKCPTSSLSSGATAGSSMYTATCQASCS
Assay: h-GLP-1 activity assay (cAMP HTRF, HEK293 cells with stable expression of human GLP-1)
Conditions: relative EC50, 10 nM human GLP-1 set as 100% response, 30 min at 37° C.
pEC50: −log10 of the molar value.
Endpoint Label: pEC50

[Q] Would you mind telling me what pEC50 value was observed for C[C@H]1c2c(nn(-c3ccc(F)c(Cl)c3)c2-n2ccn(-c3ccc4c(cnn4C)c3F)c2=O)CCN1C(=O)c1cn2cc([C@@H]3CCOC(C)(C)C3)ccc2c1C1(c2noc(=O)[nH]2)CC1 (single isomer, unassigned) ?
[A] > 7.70

[Q] Would you mind telling me what pEC50 value was observed for Cc1cc(-c2nn3c(c2-n2ccn(-c4ccc5c(cnn5C)c4F)c2=O)[C@@H](C)N(C(=O)c2cc4cc([C@@H]5CCOC(C)(C)C5)ccn4c2C2(c4noc(=O)[nH]4)CC2)CC3)cc(C)c1F (single isomer, unassigned) ?
[A] > 7.70

[Q] Would you mind telling me what pEC50 value was observed for C[C@@H]1c2c(-n3ccn(-c4ccc5c(cnn5C)c4F)c3=O)c(-c3ccc(F)cc3)nn2CCN1C(=O)c1cc2cc([C@H]3CCOC(C)(C)C3)ccc2n1C1(c2noc(=O)[nH]2)CC1 (single isomer, unassigned) ?
[A] < 7.00

[Q] Would you mind telling me what pEC50 value was observed for C[C@H]1c2c(nn(-c3ccc(F)c(C4CC4)c3)c2-n2ccn(-c3ccc4c(cnn4C)c3F)c2=O)CCN1C(=O)c1c(Cl)c2cc([C@@H]3CCOC(C)(C)C3)ccn2c1C1(c2noc(=O)[nH]2)CC1 (single isomer, unassigned) ?
[A] < 7.00

----------
Assay: Pharmacokinetics after oral gavage in fasted SD rats
Assay type: in vivo
Details: rat, plasma, 5 mg/kg
Endpoint Label: bioavailability (%)
Only the number, expressed in %, is required.

Known results for compounds:
| Compound | Endpoint Label | Quantitative Result |
| --- | --- | --- |
| C[C@H]1c2c(nn(-c3ccc(F)c(C4CC4)c3)c2-n2ccn(-c3ccc4c(cnn4C)c3F)c2=O)CCN1C(=O)c1cn2nc([C@@H]3CCOC(C)(C)C3)ccc2c1C1(c2noc(=O)[nH]2)CC1 (single isomer, unassigned) [Compound 90] | bioavailability | 59 |
| C[C@H]1c2c(nn(-c3ccc(F)c(C4CC4)c3)c2-n2ccn(-c3ccc4c(cnn4C)c3F)c2=O)CCN1C(=O)c1cn2cc([C@@H]3CCOC(C)(C)C3)ccc2c1C1(c2noc(=O)[nH]2)CC1 (single isomer, unassigned) [Compound 76] | bioavailability | 30 |
| C[C@H]1c2c(nn(-c3ccc(F)c(C4CC4)c3)c2-n2ccn(-c3ccc4c(cnn4C)c3F)c2=O)CCN1C(=O)c1cn2cc([C@H]3CCOC(C)(C)C3)cc(F)c2c1C1(c2noc(=O)[nH]2)CC1 (single isomer, unassigned) [Compound 91] | bioavailability | 22 |
| Cc1cc(-n2nc3c(c2-n2ccn(-c4ccc5c(cnn5C)c4F)c2=O)[C@H](C)N(C(=O)c2cn4cc([C@@H]5CCOC(C)(C)C5)ccc4c2C2(c4noc(=O)[nH]4)CC2)CC3)cc(C)c1F (single isomer, unassigned) [Compound 19] | bioavailability | 26 |

We next turn to a different compound, shown below.
[Q] Would you mind telling me what bioavailability value was observed for C[C@H]1c2c(nn(-c3ccc(F)c(C4CC4)c3)c2-n2ccn(-c3ccc4c(cnn4C)c3F)c2=O)CCN1C(=O)c1cc2cc([C@@H]3CCOC(C)(C)C3)ccn2c1C1(c2noc(=O)[nH]2)CC1 (single isomer, unassigned) [Compound 73] ?
[A] 90

The origin of these recorded values is patent US12037339B2.
